B1: 1-phosphatidylinositol 4,5-bisphosphate phosphodiesterase gamma-2, residues 772 to 827; numbered along this chain, P16885 (parent)
chain: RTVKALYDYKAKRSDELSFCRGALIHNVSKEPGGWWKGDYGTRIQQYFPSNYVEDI

# Variants of: B1
# Assay Comment: abundance fitness (aPCA) (normalised: wild type 0, dead -1); higher = more abundant; growth selection in yeast, the domain comes from the species named
# Assay Context: Homo sapiens
The label depends only on abundance fitness: true if it is at least -0.3, false if it is smaller.

| Mutation Code | Qualitative Label |
| --- | --- |
| V28Q | false |
| R43I | false |
| Q46W | false |
| G41M | true |
| K37E | false |
| S14F | true |
| Q45Y | false |
| Y9E | false |
| R43L | true |
| L17T | false |
| L24H | false |
| Y40V | true |
| R43A | true |
| S50D | false |
| Y7Q | true |
| Y7S | true |
| G34I | true |
| R1V | true |
| S50Q | false |
| T42E | true |
| G38L | false |
| S50K | true |

Reference for the values: the Human Domainome abundance scans (Beltran et al. 2025)
